- Test system: c-Abl (mouse);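 note: 11-residue human phosphosite peptides and single-mutation variants displayed on the E. coli surface, counted by deep sequencing, each peptide's frequency after selection divided by its frequency in the unselected input library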;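 note: frequency after pTyr selection over input frequency; kinase dosed for 20-30% of maximal phosphorylation in three min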
- experimental-protocol: phosphorylation enrichment, bacterial display (enrichment ratio); higher = better substrate or ligand; peptides without Tyr show the background
measured-metric: phosphorylation enrichment
No unit in the answer, please; the number alone is enough.

As a guide, the following entries are already answered.
INSERT INTO results (polymer_sequence, measured_metric, recorded_value) VALUES
  ('QGCGIYKDFFR [PLA2G2D_Y82_S80G_YF]', 'phosphorylation enrichment', 1.26),
  ('TLLPDYEDEEE [ZNF830_Y159_S154T]', 'phosphorylation enrichment', 0.846),
  ('PTTKTYFRHFD [HBA1_Y43_P45R]', 'phosphorylation enrichment', 0.667),
  ('TFWKKYCTFWK [CCDC70_Y125_R126C]', 'phosphorylation enrichment', 0.752),
  ('NACGLYYKLHN [GATA2_Y376]', 'phosphorylation enrichment', 0.922),
  ('QRMGTYGVRAA [ICAM2_Y260]', 'phosphorylation enrichment', 0.637),
  ('GTQGSYLLSRK [UGT3A1_Y123_C121G]', 'phosphorylation enrichment', 0.606),
  ('MFNPCYGLFEY [NEDD4L_Y680_Y679C]', 'phosphorylation enrichment', 0.842);

(Q) Dear colleague, please send me the reported phosphorylation enrichment for LQTYRYHGLSM [PDHA1_Y289_H292L] when you can.
(A) 0.564

(Q) Dear colleague, please send me the reported phosphorylation enrichment for GGGGSYNVFGN [HNRNPA1_Y312_D314V] when you can.
(A) 0.652

(Q) Dear colleague, please send me the reported phosphorylation enrichment for EERNPYFSSAR [MCCC2_Y520_G517R_YF] when you can.
(A) 0.624

(Q) Dear colleague, please send me the reported phosphorylation enrichment for VIKDKYPQARF [APTX_Y209_K211Q_YF] when you can.
(A) 0.47

(Q) Dear colleague, please send me the reported phosphorylation enrichment for HKLSSYEYDFE [BTK_Y40_Y39S] when you can.
(A) 0.966

Attribution: the supplement of paper PMC10065799
